study system: Full-length glucokinase (beta cell isoform) (Homo sapiens, UniProt P35557)
Construct: Full-length glucokinase (beta cell isoform) was His-tagged at N-terminus; His tag (N); made in house
Sequence (P35557 whole entry, species assumed, canonical isoform): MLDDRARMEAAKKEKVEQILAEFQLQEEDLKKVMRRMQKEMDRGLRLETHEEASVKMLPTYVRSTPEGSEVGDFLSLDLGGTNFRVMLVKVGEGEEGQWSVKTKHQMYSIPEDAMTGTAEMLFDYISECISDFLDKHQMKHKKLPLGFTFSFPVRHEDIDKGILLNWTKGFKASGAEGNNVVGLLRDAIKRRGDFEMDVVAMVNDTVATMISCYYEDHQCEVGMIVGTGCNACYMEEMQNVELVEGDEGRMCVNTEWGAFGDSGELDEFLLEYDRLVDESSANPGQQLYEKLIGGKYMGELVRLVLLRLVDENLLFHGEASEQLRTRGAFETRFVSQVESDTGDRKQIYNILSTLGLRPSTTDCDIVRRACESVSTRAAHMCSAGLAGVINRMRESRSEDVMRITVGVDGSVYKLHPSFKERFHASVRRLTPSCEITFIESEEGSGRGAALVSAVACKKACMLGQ
measurement notes: Glucokinase biochemical assay (PK/LDH-coupled, NADH depletion at 340 nm): % activation, EC50, % max activation
condition details: 5 mM glucose; GK activation; read-out: EC50
Quick reference: EC50 of the listed items.
readout type: EC50 (nM)

[[record]]
compound = "CCS(=O)(=O)c1ccc(Oc2cc(C(=O)Nc3cnn(C)n3)cc3c2CC(C)(C)O3)cc1F [Example 135]"
study_system = "Full-length glucokinase (beta cell isoform) (Homo sapiens, UniProt P35557)"
unit_label = "nM"
reported_value = 97

[[record]]
compound = "CN(C)C(=O)c1cc2c(Oc3ccc(S(C)(=O)=O)cc3)cc(C(=O)Nc3cnn(C)n3)cc2o1 [Example 288]"
study_system = "Full-length glucokinase (beta cell isoform) (Homo sapiens, UniProt P35557)"
unit_label = "nM"
reported_value = 1700

[[record]]
compound = "Cc1nccnc1C(C)Oc1cc(C(=O)Nc2ccn(C)n2)cc2c1CC(C)(C)O2 (stereo not drawn) [Example 83]"
study_system = "Full-length glucokinase (beta cell isoform) (Homo sapiens, UniProt P35557)"
unit_label = "nM"
reported_value = 8200

[[record]]
compound = "CN(C)C(=O)c1ccc(Oc2cc(C(=O)Nc3ccc(CO)cn3)cc3c2CC(C)(C)O3)cc1F [Example 145]"
study_system = "Full-length glucokinase (beta cell isoform) (Homo sapiens, UniProt P35557)"
unit_label = "nM"
reported_value = 72.7

[[record]]
compound = "COCC1(C)Cc2c(Oc3ccc(S(=O)(=O)C4CC4)cc3)cc(C(=O)Nc3cnn(C)n3)cc2O1 (single isomer, unassigned; (+)) [Example 249]"
study_system = "Full-length glucokinase (beta cell isoform) (Homo sapiens, UniProt P35557)"
unit_label = "nM"
reported_value = 86

[[record]]
compound = "Cn1ccc(NC(=O)c2cc(Oc3ccc(S(=O)(=O)C4CCC4)cc3)c3c(c2)OC(C)(C)C3)n1 [Example 123]"
study_system = "Full-length glucokinase (beta cell isoform) (Homo sapiens, UniProt P35557)"
unit_label = "nM"
reported_value = 55

[[record]]
compound = "Cc1ccc(NC(=O)c2cc(Oc3ccc(S(C)(=O)=O)cc3)c3cc(Cn4ccnc4C)oc3c2)nc1 [Example 320]"
study_system = "Full-length glucokinase (beta cell isoform) (Homo sapiens, UniProt P35557)"
unit_label = "nM"
reported_value = 2500

[[record]]
compound = "COCc1nnc(NC(=O)c2cc(Oc3ccc(S(C)(=O)=O)cc3)c3c(c2)OC(C)(C)C3)s1 [Example 30]"
study_system = "Full-length glucokinase (beta cell isoform) (Homo sapiens, UniProt P35557)"
unit_label = "nM"
reported_value = 4200

[[record]]
compound = "Cn1ccc(NC(=O)c2cc(Oc3cnc(C(=O)N4CCC4)c(F)c3)c3c(c2)OC(C)(C)C3)n1 [Example 173]"
study_system = "Full-length glucokinase (beta cell isoform) (Homo sapiens, UniProt P35557)"
unit_label = "nM"
reported_value = 68

[[record]]
compound = "Cn1ccc(NC(=O)c2cc(Oc3ccc(C(=O)NCCF)c(F)c3)c3c(c2)OC(C)(C)C3)n1 [Example 75]"
study_system = "Full-length glucokinase (beta cell isoform) (Homo sapiens, UniProt P35557)"
unit_label = "nM"
reported_value = 260

[[record]]
compound = "CN(C)C(=O)c1c(F)cc(Oc2cc(C(=O)Nc3ccn(C)n3)cc3c2CC(C)(C)O3)cc1F [Example 111]"
study_system = "Full-length glucokinase (beta cell isoform) (Homo sapiens, UniProt P35557)"
unit_label = "nM"
reported_value = 45

[[record]]
compound = "Cn1ccc(NC(=O)c2cc(Oc3ccc(C(=O)N4CCC4)cc3)c3c(c2)OC(C(F)F)C3)n1 (stereo not drawn) [Example 226]"
study_system = "Full-length glucokinase (beta cell isoform) (Homo sapiens, UniProt P35557)"
unit_label = "nM"
reported_value = 640

[[record]]
compound = "CN(C)C(=O)c1ccc(Oc2cc(C(=O)Nc3ccn(C)n3)cc3c2CC(C)(C)O3)c(F)c1 [Example 46]"
study_system = "Full-length glucokinase (beta cell isoform) (Homo sapiens, UniProt P35557)"
unit_label = "nM"
reported_value = 310

[[record]]
compound = "Cn1ccc(NC(=O)c2cc(Oc3ccc(C(=O)N4CC(F)(F)C4)c(F)c3)c3c(c2)OC(C)(C)C3)n1 [Example 52]"
study_system = "Full-length glucokinase (beta cell isoform) (Homo sapiens, UniProt P35557)"
unit_label = "nM"
reported_value = 280

[[record]]
compound = "Cn1ccc(NC(=O)c2cc(OCc3ccccc3)c3c(c2)OC(C)(C)C3)n1 [Example 80]"
study_system = "Full-length glucokinase (beta cell isoform) (Homo sapiens, UniProt P35557)"
unit_label = "nM"
reported_value = 5900


----------
study system: Full-length glucokinase (beta cell isoform) (Homo sapiens, UniProt P35557)
Construct: Full-length glucokinase (beta cell isoform) was His-tagged at N-terminus; His tag (N); made in house
measurement notes: Glucokinase biochemical assay (PK/LDH-coupled, NADH depletion at 340 nm): % activation, EC50, % max activation
condition details: 5 mM glucose; fitted maximum activation; read-out: % Max Activation
Overview of recorded Emax for various compounds
readout type: Emax (%)

[[record]]
compound = "COCc1cc2c(Oc3ccc(S(C)(=O)=O)cc3)cc(C(=O)Nc3cc(OC)ccn3)cc2o1"
readout_type = "Emax"
reported_value = 46

[[record]]
compound = "Cc1ccc(NC(=O)c2cc(Oc3ccc(S(=O)(=O)N4CCC4)cc3)c3cc(C)oc3c2)nc1"
readout_type = "Emax"
reported_value = 68

[[record]]
compound = "Cn1ccc(NC(=O)c2cc(Oc3cnc(C(=O)N4CCC4)nc3)c3c(c2)OC(C)(C)C3)n1"
readout_type = "Emax"
reported_value = 169

[[record]]
compound = "Cn1ccc(NC(=O)c2cc(OCc3noc(C(C)(C)C)n3)c3c(c2)OC(C)(C)C3)n1"
readout_type = "Emax"
reported_value = 150

[[record]]
compound = "Cc1cc2c(Oc3ccc(C(=O)N(C)C)c(F)c3)cc(C(=O)Nc3ccn(C)n3)cc2o1"
readout_type = "Emax"
reported_value = 51

[[record]]
compound = "CC1(C)Cc2c(Oc3ccc(S(C)(=O)=O)cc3)cc(C(=O)Nc3ccc(CO)cn3)cc2O1"
readout_type = "Emax"
reported_value = 117

[[record]]
compound = "Cn1ncc(NC(=O)c2cc(Oc3ccc(S(=O)(=O)C4CC4)cc3)c3c(c2)OC(C)(C)C3)n1"
readout_type = "Emax"
reported_value = 272

[[record]]
compound = "Cn1ccc(NC(=O)c2cc(OCC(=O)c3ccc(CO)cc3)c3c(c2)OC(C)(C)C3)n1"
readout_type = "Emax"
reported_value = 123

[[record]]
compound = "CN(C)C(=O)c1ccc(Oc2cc(C(=O)Nc3ccn(C)n3)cc3c2CC(C)(C)O3)cn1"
readout_type = "Emax"
reported_value = 143

[[record]]
compound = "COCC1(C)Cc2c(Oc3ccc(C(=O)N(C)C)c(F)c3)cc(C(=O)Nc3ccn(C)n3)cc2O1 (stereo not shown)"
readout_type = "Emax"
reported_value = 112

[[record]]
compound = "CCn1ncc(NC(=O)c2cc(Oc3ccc(S(C)(=O)=O)cc3)c3c(c2)OC(C)(C)C3)n1"
readout_type = "Emax"
reported_value = 255

[[record]]
compound = "CCOc1cc(C(=O)Nc2ccn(C)n2)cc2c1CC(C)(C)O2"
readout_type = "Emax"
reported_value = 164

[[record]]
compound = "Cn1ccc(NC(=O)c2cc(Oc3ccc(C#N)nc3)c3c(c2)OC(C)(C)C3)n1"
readout_type = "Emax"
reported_value = 182

[[record]]
compound = "Cc1ccc(NC(=O)c2cc(OC(C)C)cc3oc(-c4ccccc4)cc23)nc1"
readout_type = "Emax"
reported_value = 158

[[record]]
compound = "CN(C)C(=O)c1cc(F)c(Oc2cc(C(=O)Nc3ccn(C)n3)cc3c2CC(C)(C)O3)cc1F"
readout_type = "Emax"
reported_value = 83

[[record]]
compound = "Cn1ccc(NC(=O)c2cc(Oc3ccc(C(F)F)cc3)c3c(c2)OC(C)(C)C3)n1"
readout_type = "Emax"
reported_value = 149

[[record]]
compound = "CN(C)C(=O)c1c(F)cc(Oc2cc(C(=O)Nc3ccn(C)n3)cc3c2CC(C)(C)O3)cc1F"
readout_type = "Emax"
reported_value = 115

[[record]]
compound = "CN1CCN(C(=O)c2ccc(Oc3cc(C(=O)Nc4ccn(C)n4)cc4c3CC(C)(C)O4)c(F)c2)CC1"
readout_type = "Emax"
reported_value = 139

[[record]]
compound = "CN(C)C(=O)c1ccc(Oc2cc(C(=O)Nc3ccc(CO)cn3)cc3c2CC(C)(C)O3)cc1F"
readout_type = "Emax"
reported_value = 46.5

[[record]]
compound = "COc1ccnc(NC(=O)c2cc(Oc3ccc(S(C)(=O)=O)cc3)c3c(c2)OC(C)(C)C3)c1"
readout_type = "Emax"
reported_value = 114

[[record]]
compound = "Cc1ccc(NC(=O)c2cc(OC3CN(S(C)(=O)=O)C3)c3cc(C)oc3c2)nc1"
readout_type = "Emax"
reported_value = 90

[[record]]
compound = "COCCN(C)C(=O)c1ccc(Oc2cc(C(=O)Nc3ccn(C)n3)cc3c2CC(C)(C)O3)cc1F"
readout_type = "Emax"
reported_value = 158

[[record]]
compound = "Cc1ccc(NC(=O)c2cc(Oc3ccc(C(=O)N(C)C)c(F)c3)c3ccsc3c2)nc1"
readout_type = "Emax"
reported_value = 56

[[record]]
compound = "CN(C)C(=O)c1cc2c(Oc3ccc(S(C)(=O)=O)cc3)cc(C(=O)Nc3ccn(C)n3)cc2o1"
readout_type = "Emax"
reported_value = 224

[[record]]
compound = "Cn1ccc(NC(=O)c2cc(Oc3ccc(S(C)(=O)=O)cc3)c3c(c2F)OC(C)(C)C3)n1"
readout_type = "Emax"
reported_value = 138

[[record]]
compound = "CN(C)C(=O)c1ccc(Oc2cc(C(=O)Nc3ccncn3)cc3c2CC(C)(C)O3)cc1"
readout_type = "Emax"
reported_value = 49

[[record]]
compound = "Cc1cc2c(Oc3ccc(S(=O)(=O)N(C)C)c(F)c3)cc(C(=O)Nc3cnc(N(C)C)cn3)cc2o1"
readout_type = "Emax"
reported_value = 131

[[record]]
compound = "CN(C)C(=O)c1ccc(Oc2cc(C(=O)Nc3cnccn3)cc3c2CC(C)(C)O3)cc1"
readout_type = "Emax"
reported_value = 97

[[record]]
compound = "COCC1(C)Cc2c(Oc3ccc(S(=O)(=O)C4CC4)cc3)cc(C(=O)Nc3cnn(C)n3)cc2O1 (single isomer, unassigned; (+))"
readout_type = "Emax"
reported_value = 262

[[record]]
compound = "Cn1ccc(NC(=O)c2cc(Oc3ccc(S(=O)(=O)C4CCC4)cc3)c3c(c2)OC(C)(C)C3)n1"
readout_type = "Emax"
reported_value = 150

[[record]]
compound = "Cc1cc2c(Oc3ccc(S(C)(=O)=O)cc3)cc(C(=O)Nc3cccc(C(C)O)n3)cc2o1 (stereo not shown)"
readout_type = "Emax"
reported_value = 59

